- protocol-notes: qHTS assay to identify small molecule agonists of the TGF-beta/Smad signaling pathway (AID 1346859)
- condition-context: SBE-bla HEK293T, TGF-beta/Smad beta-lactamase reporter, 5 h; series mostly up to 76.8 µM
Inconclusive results are not listed. Activity calls are given as the source filed them. Calls come from the whole dose curve; as a rule, active = well fitted activation curve with a large enough effect in the signal ratio in the repeat runs (not every such curve was filed as active); inconclusive = weak or mixed curves; inactive = flat fitted curve, though single readings scatter; the % refers to the signal ratio.

compound | activation
OCCCC1CCCCC1 | inactive
O=C(O)c1ccccc1OP(=O)(O)O | inactive
CN1C(=O)N(C)C(O)C1O (stereo not drawn) | inactive

* * *

- protocol-notes: qHTS assay to identify aromatase inhibitors - cell viability counter screen (AID 743084);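 note: cells stimulated with testosterone during compound exposure; nearly all actives have a fitted effect of over 55% in size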
- condition-context: MCF-7 aro ERE viability, CellTiter-Fluor, 24 h; series mostly up to 70.3 µM
Records with an inconclusive call do not appear. Activity calls are given as the source filed them. Calls come from the whole dose curve; as a rule, active = well fitted cell-killing curve with a large enough effect in the repeat runs; inconclusive = weak or mixed curves, or effect the other way; inactive = no such curve, though single readings can be large or run the other way.
outcome-measure: outcome

compound | outcome-measure | experimental-value
CC(=O)N(CC(O)CO)c1c(I)c(C(=O)NCCO)c(I)c(C(=O)NCC(O)CO)c1I (stereo unspecified) | outcome | inactive
CCC=O | outcome | inactive
O=Cc1cccc([N+](=O)[O-])c1 | outcome | inactive
Cc1cccn2c(=O)c(-c3nnn[nH]3)cnc12 | outcome | inactive
CC(C)OC(=O)c1ccccc1 | outcome | inactive
COC(=O)CC(C)=O | outcome | inactive
CCO/C([O-])=N/c1c[n+](N2CCOCC2)no1 | outcome | inactive
CC(C)(O)C#CC(C)(C)O | outcome | inactive
CN1CCCC1 | outcome | inactive
CCCCOCCOCCOCc1cc2c(cc1CCC)OCO2 | outcome | inactive
CCCCC(CC)COC(=O)c1ccccc1O (stereo unspecified) | outcome | inactive

* * *

- protocol-notes: qHTS assay to identify small molecule antagonists of the thyroid receptor (TR) signaling pathway - cell viability counter screen (AID 743064); note: nearly all actives have a fitted effect of over 50% in size
- condition-context: GH3.TRE-Luc viability, CellTiter-Fluor, 24 h; series mostly up to 70.3 µM
Results filed as inconclusive are left out. The source made the active and inactive calls. Calls follow the shape of the dose curve; as a rule, active = well fitted cell-killing curve with a large enough effect in the repeat runs; inconclusive = weak or mixed curves, or effect the other way; inactive = no such curve, though single readings can be large or run the other way.
Possible outcomes: active, inactive

compound | assigned-class
N#Cc1ccc(C2CCCc3cncn32)cc1 (stereo not given) | inactive
Cc1ccc(C#N)cc1 | inactive
CCOC(=O)CCC(C)=O | inactive
Nc1cc(=O)[nH]c(N)n1 | inactive
CC(=O)Nc1c(I)cc(I)c(C(=O)O)c1I | inactive
CCC(C)C1CCCCC1=O (stereo not given) | inactive
COC(=O)CC(C)=O | inactive
CCOC(=O)c1cccc(N)c1 | inactive
N=C(N)c1ccccc1 | inactive
COc1ccccc1OCC(O)CN1CCN(CC(=O)Nc2c(C)cccc2C)CC1 (stereo not given) | inactive
O=C(CCCN1CCN(c2ccccn2)CC1)c1ccc(F)cc1 | inactive
CCC(=O)OC(C)c1ccccc1 (stereo not given) | inactive
CC(C)c1cc2c(cc1S(=O)(=O)O)[C@@]1(C)CCC[C@@](C)(C(=O)O)[C@@H]1CC2 | inactive
O=C(O)CCCc1ccccc1 | inactive
C[C@@H]1CCN(C(=O)[C@H](CCCN=C(N)N)NS(=O)(=O)c2cccc3c2NC[C@H](C)C3)[C@@H](C(=O)O)C1 | inactive
CCCN(CCC)CCc1cccc2c1CC(=O)N2 | inactive
Cc1cc2c(cc1S(N)(=O)=O)S(=O)(=O)CCC2 | inactive
C1OCOCO1 | inactive
O=C1OC(=O)C2CCCCC12 (stereo not given) | inactive
NC(=O)COCCN1CCN(C(c2ccccc2)c2ccc(Cl)cc2)CC1 (stereo not given) | active
CCOC(=O)[C@H](CCc1ccccc1)N[C@@H](C)C(=O)N1[C@H](C(=O)O)C[C@@H]2CCC[C@@H]21 | inactive
C=C[Si](OC(=C)C)(OC(=C)C)OC(=C)C | inactive
Cc1nc2c([nH]1)c(=O)n(C)c(=O)n2Cc1ccco1 | inactive
N[C@H](C(=O)O)c1ccc(O)cc1 | inactive
CC(C)=CCCC(C)CC(=O)O (stereo not given) | inactive
